- Tested on: UO-31
- Run description: NCI tumour cell line growth inhibition, 48 h
Active and inactive are the calls of the source. No stated cut-off is given here; in the data, active = GI50 up to about 1.1 µM and inactive = higher.
Consider the following compounds; for each one, report its GI50.

// map COC(=O)c1cc(C(=O)OC)c(CC(=O)C(=O)NC2C3CC4CC(C3)CC2C4)nc1CC(=O)C(=O)NC1C2CC3CC(C2)CC1C3 (stereo not given) to recorded GI50 (system: UO-31)
> 100 µM (inactive)

// map O=C(O)c1cccc(NC(C(=O)c2ccccc2)c2ccccc2)c1 (stereo not given) to recorded GI50 (system: UO-31)
> 100 µM (inactive)

// map `CCCCCCCCCCCCCCCCCc1cc(Cl)nc(Cl)n1` to recorded GI50 (system: UO-31)
> 100 µM (inactive)

// map COc1cc(C(c2ccccc2)N2C(=O)CC[C@H]2C(=O)O)cc(OC)c1OC (stereo not given in full) to recorded GI50 (system: UO-31)
> 100 µM (inactive)

// map COc1ccccc1C1SCC(=O)N1c1ccc(-c2ccc(-n3c(-c4ccccc4)nc4ccccc4c3=O)cc2)cc1 (stereo not given) to recorded GI50 (system: UO-31)
29.9 µM (inactive)

// map `COc1cc(/C=N/N=C2NCCCCN2)ccc1O` to recorded GI50 (system: UO-31)
> 100 µM (inactive)

// map `CCN(CC)CCn1ccc(=O)c2cc3c(=O)ccn(CCN(CC)CC)c3c(C)c21` to recorded GI50 (system: UO-31)
5.07 µM (inactive)

// map CCCCCCCCCCCCCCCCP(=O)(O)OP(=O)(O)OCC1OC(n2cnc3c(N)ncnc32)C(O)C1O (stereo not given) to recorded GI50 (system: UO-31)
15.8 µM (inactive)

// map `CCCOc1ccc(/C(Cl)=C(\C=O)c2ccc(OC)c(OC)c2)cc1OCCC` to recorded GI50 (system: UO-31)
17.6 µM (inactive)

// map `CN1CCCc2nc3ccccc3n2C1` to recorded GI50 (system: UO-31)
> 100 µM (inactive)
